The values you see were collected from ChEMBL document CHEMBL1146554.

Tested on: Radical scavenging activity
Experiment summary: Antioxidant activity assessed as DPPH radical scavenging activity at 230 uM after 30 mins
Format: functional
Test readout: Activity (%)
Answers are plain numbers, in %.

Here is how some molecules turned out for Activity.
C/C(=C/CC/C(C)=C/CC/C(C)=C\C(=O)C/C(C)=C/Cc1cc(O)cc(C)c1O)CO ... 96.7
CC(C)=CCC/C(C)=C\C(=O)C/C(C)=C/Cc1cc(O)cc(C)c1O ... 92.5
CC1=CC(=O)C=C(C/C=C(\C)CC(=O)/C=C(\C)CC/C=C(\C)Cc2cc(C)co2)C1=O ... 29

Dear colleague, could you send me Activity for each of the items below? Thanks.
1. CC(C)=CC(O)C/C(C)=C/CC/C(C)=C/C(=O)C/C(C)=C/Cc1cc(O)cc(C)c1O (centres undefined)
2. CC(C)=CCC/C(C)=C/CC/C(C)=C/C(=O)C/C(C)=C/Cc1cc(O)cc(C)c1O
3. C/C(=C/C(=O)C/C(C)=C/Cc1cc(O)cc(C)c1O)CC/C=C(\C)Cc1cc(C)co1
4. CC(C)=CCC/C(C)=C/C(=O)C/C(C)=C/Cc1cc(O)cc(C)c1O
5. Cc1c(C)c2c(c(C)c1O)CC[C@@](C)(CCC[C@H](C)CCC[C@H](C)CCCC(C)C)O2
6. C/C(=C/CC/C(C)=C/CC/C(C)=C/C(=O)C/C(C)=C/Cc1cc(O)cc(C)c1O)CO

[96.1, 94.4, 95.8, 94.1, 95.2, 96.4]
